conditions: Ebola virus entry cell assay, ratio channel
The source made the active and inactive calls. Calls come from the whole dose curve.
Result category, one only: active, inactive

Before answering, review these 2 worked examples.
O=C1[C@H](CC[C@H](O)c2ccc(F)cc2)[C@@H](c2ccc(O)cc2)N1c1ccc(F)cc1: inactive
Cc1ccc(C)c(OCCCC(C)(C)C(=O)O)c1: inactive

Could you check what this test reported for COCCCC/C(=N\OCCN)c1ccc(C(F)(F)F)cc1 ?
inactive

Could you check what this test reported for Clc1ccc2c(c1)C(N1CCNCC1)=Nc1ccccc1O2 ?
active

* * *

conditions: Ebola virus entry assay, blue channel fluorescence
Active and inactive are the calls of the source. How the calls were made is not given here.
Result category, one only: YES = active, NO = inactive

COC(=O)N[C@H](C(=O)N[C@@H](Cc1ccccc1)[C@@H](O)CN(Cc1ccc(-c2ccccn2)cc1)NC(=O)[C@@H](NC(=O)OC)C(C)(C)C)C(C)(C)C: NO
CCC(=O)O[C@H]1[C@H](O[C@@H]2[C@@H](C)[C@H](O[C@H]3C[C@@](C)(OC)[C@@H](O)[C@H](C)O3)[C@@H](C)C(=O)O[C@H](CC)[C@@](C)(O)[C@H](O)[C@@H](C)C(=O)[C@H](C)C[C@@]2(C)O)O[C@H](C)C[C@@H]1N(C)C: YES

# ---- query molecule ----
Could you check what this test reported for CCCSc1ccc2nc(NC(=O)OC)[nH]c2c1 ?
YES
